# relative integration efficiency (log2) per entry
- System: VchCAST RNA-guided transposition machinery (E. coli BL21(DE3) host, lacZ target)
- methodDescription: relative integration efficiency (T-RL orientation) vs wild-type transposon end (log2 (normalized fold change)); transposon end mutated: left end; higher = more efficient transposition
resultType: relative integration efficiency (log2)

1) AATGTTGTTGATGCAACCATAAAGTGATATTTAATAATTATTCAACCATATATTGATATCTCACAAAACAACCATAAGTTGATATTTTTATAATCAGCAACTTAACCACAAAATGTGAATCGAGTATTTCAGCAAAACTACTGCAGTAAGAA = -6.85
2) AATGTTGTTGATGCAACCATAAAGTGATATTTAATAACTTCGTATAGTATACCTTATACGAAGTTATCAACCATATATTGATATCTCACAAAACAACCATAAGTTGATATTTTTGTGAATCGAGTATTTCAGCAAAACTACTGCAGTAAGAA = -3.19
3) AATGTTGTTGATGCAACCATAAAGTGATATTTATTGTGAGCGGATAACAATTGTGAGCGGATAACAACAACCATATATTGATATCTCACAAAACAACCATAAGTTGATATTTTTGTGAATCGAGTATTTCAGCAAAACTACTGCAGTAAGAA = -6.71
4) AATGTTGTTGATGCAACCATAAAGTGATATATAATTATTTATAATCAGCAACTTAACCACAAAACAACCATATATTGATATCTCACAAAACAACCATAAGTTGATATTTTTGTGAATCGAGTATTTCAGCAAAACTACTGCAGTAAGAAAGT = -7.3
